Target: UniProtKB P00803
pIC50: −log10 of the molar value.
// label = class 1 if pIC50 is not less than 5, otherwise class 0

{"columns": ["Molecule", "Class name"],
 "data": [
  ["O=C(Nc1ccccc1)C1=CSC2CC(=O)N12 (configuration not stated)", "class 0"],
  ["COC(=O)C1=CSC2CC(=O)N12 (configuration not stated)", "class 1"],
  ["CN(Cc1ccccc1)C(=O)C1=CSC2CC(=O)N12 (configuration not stated)", "class 0"],
  ["COC(=O)c1ccc(COC(=O)C2=CSC3CC(=O)N23)cc1 (configuration not stated)", "class 1"]
]}

====

These compounds were tested on Signal peptidase I (Escherichia coli K-12, UniProt P00803); IC50 is the recorded read-out.
Sequence (P00803 whole entry): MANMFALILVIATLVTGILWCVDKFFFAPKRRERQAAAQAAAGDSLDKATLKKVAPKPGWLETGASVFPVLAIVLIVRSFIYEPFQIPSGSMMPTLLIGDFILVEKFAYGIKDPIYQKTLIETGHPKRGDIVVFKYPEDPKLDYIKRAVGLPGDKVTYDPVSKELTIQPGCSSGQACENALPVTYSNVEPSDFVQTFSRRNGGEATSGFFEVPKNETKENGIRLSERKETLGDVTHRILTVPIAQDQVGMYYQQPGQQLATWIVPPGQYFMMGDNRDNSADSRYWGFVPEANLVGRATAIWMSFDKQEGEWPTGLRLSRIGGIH

{"columns": ["Compound", "IC50 / µM"],
 "data": [
  ["COC(=O)c1cccc(COC(=O)C2=CSC3CC(=O)N23)c1 (stereo not drawn)", 8],
  ["COc1ccc(COC(=O)C2=CSC3CC(=O)N23)cc1 (stereo not drawn)", 7],
  ["O=C(C1=CSC2CC(=O)N12)N1CCOCC1 (stereo not drawn)", 115]
]}

====

Each record here notes measured inhibition.
Target: UniProt:P00803
Assay: Inhibitory activity against Escherichia coli leader peptidase at a concentration of 100 uM
Endpoint name: inhibition (%)

{"columns": ["Compound", "Endpoint name", "Units of measure", "Reported value"],
 "data": [
  ["O=C(OCCCCc1ccccc1)C1=CSC2CC(=O)N12 (configuration not stated)", "inhibition", "%", 83],
  ["O=C(O)C1=CSC2CC(=O)N12 (configuration not stated)", "inhibition", "%", 0],
  ["C=CCOC(=O)C1=CS[C@@H]2[C@@H](CC)C(=O)N12", "inhibition", "%", 19],
  ["O=C(NCc1ccccc1)C1=CSC2CC(=O)N12 (configuration not stated)", "inhibition", "%", 34],
  ["COc1ccc(NC(=O)C2=CSC3CC(=O)N23)cc1 (configuration not stated)", "inhibition", "%", 77],
  ["C=CCOC(=O)C1=CS[C@H]2[C@@H]([C@@H](C)OC(C)=O)C(=O)N12", "inhibition", "%", 100],
  ["COC(=O)C1=CSC2CC(=O)N12 (configuration not stated)", "inhibition", "%", 100]
]}

====

Target: Signal peptidase I (Escherichia coli K-12) (UniProt P00803)
Sequence (P00803 whole entry): as above
Test: Inhibitory activity against Escherichia coli leader peptidase at a concentration of 100 uM
// label = 1.0 if inhibition is not less than 80%, otherwise 0.0

{"columns": ["Molecule", "Class name"],
 "data": [
  ["C=CCOC(=O)C1=CS[C@@H]2[C@H]([C@H](C)OC(C)=O)C(=O)N12", 0.0],
  ["C=CCOC(=O)C1=CS[C@H]2[C@@H](CC)C(=O)N12", 1.0],
  ["C=CCOC(=O)C1=CSC2CC(=O)N12 (centres undefined)", 1.0],
  ["CCN(CC)C(=O)C1=CSC2CC(=O)N12 (centres undefined)", 1.0],
  ["COCOC(=O)C1=CSC2CC(=O)N12 (centres undefined)", 1.0],
  ["COC(=O)c1cccc(COC(=O)C2=CSC3CC(=O)N23)c1 (centres undefined)", 0.0],
  ["O=C(OCc1ccc(C(=O)O)cc1)C1=CSC2CC(=O)N12 (centres undefined)", 0.0],
  ["O=C(C1=CSC2CC(=O)N12)N1CCCC1 (centres undefined)", 1.0],
  ["CN(Cc1ccccc1)C(=O)C1=CSC2CC(=O)N12 (centres undefined)", 1.0],
  ["CCCCCCCCCCCCCCCCOC(=O)C1=CSC2CC(=O)N12 (centres undefined)", 0.0],
  ["C=CCOC(=O)C1=CS[C@@H]2[C@@H]([C@H](C)OC(C)=O)C(=O)N12", 0.0],
  ["C=CCOC(=O)C1=CS[C@H]2[C@@H]([C@@H](C)O)C(=O)N12", 1.0],
  ["COc1ccc(COC(=O)C2=CS[C@@H]3CC(=O)N23)cc1", 0.0],
  ["COC(=O)c1ccc(COC(=O)C2=CSC3CC(=O)N23)cc1 (centres undefined)", 1.0],
  ["O=C(Nc1ccccc1)C1=CSC2CC(=O)N12 (centres undefined)", 1.0],
  ["CCCCCOC(=O)C1=CSC2CC(=O)N12 (centres undefined)", 1.0],
  ["O=C(OCc1ccccc1)C1=CS[C@@H]2CC(=O)N12", 0.0],
  ["O=C(OCc1ccc([N+](=O)[O-])cc1)C1=CSC2CC(=O)N12 (centres undefined)", 1.0],
  ["C=CCOC(=O)C1=CS[C@H]2[C@@H]([C@H](C)OC(C)=O)C(=O)N12", 0.0],
  ["COc1ccc(COC(=O)C2=CSC3CC(=O)N23)cc1 (centres undefined)", 1.0],
  ["O=C(OCc1ccccc1)C1=CS[C@H]2CC(=O)N12", 1.0],
  ["C=CCOC(=O)C1=CS[C@@H]2[C@@H]([C@@H](C)OC(C)=O)C(=O)N12", 0.0],
  ["CC(C)(C)NC(=O)C1=CSC2CC(=O)N12 (centres undefined)", 0.0]
]}
